# tested-system: RRE RNA hairpin (internal loop IIB)
# test-details: SPR analysis of interaction with RRE RNA hairpin
# Assay type: binding, HIV-1
# measurement-setup: 25° C., pH 7.4, high affinity site when two-site model, footnote d compounds: ligand range 0.1-25 μM, read-out: Kd(RRE)
Consider the following compounds and their measured Kd readings.
Lab book: enter the figure in µM, no units written.

# example entries with known answers
| compound | tested-system | assay-endpoint | experimental-value |
| --- | --- | --- | --- |
| COc1cc(CCN)c(-c2ccc(-c3cc(CCN)c(OCc4ccc(C(F)(F)F)cc4)c(CCN)c3)c(OC)c2)c(CCN)c1 [IIS-478] | RRE RNA hairpin (internal loop IIB) | Kd | 14 |
| CCc1cc(-c2c(CCN)cc(OC)cc2CCN)cc(CC)c1-c1cc(CCN)c(O)c(CCN)c1 [IIS-806] | RRE RNA hairpin (internal loop IIB) | Kd | 8.1 |
| CCc1cc(-c2c(CCN)cc(OC)cc2CCN)cc(CC)c1-c1cc(CCN)c(OCc2ccccc2)c(CCN)c1 [IIS-771] | RRE RNA hairpin (internal loop IIB) | Kd | 17.6 |
| CCc1cc(-c2c(CCN)cc(OC)cc2CCN)ccc1-c1cc(CCN)c(OCc2ccccc2)c(CCN)c1 [IIS-758] | RRE RNA hairpin (internal loop IIB) | Kd | 16.7 |

Returns the measured Kd for the input compound. Input: CCc1cc(-c2c(CCN)cc(OC)cc2CCN)ccc1-c1cc(CCN)c(O)c(CCN)c1 [IIS-792]
8.1

Just for reference, patent US9586943B2 is where these values come from.
